- System: K. pneumoniae UMM
- assay.explanation: microbe, parasite or virus in culture
- Format: cell-based
- particulars: Klebsiella pneumoniae, read-out: MIC K. pneumoniae UMM
Field: MIC. Provide a value for each of the compounds that follow.

INPUT: Read the entry O=C(O)c1cccc2c1OB(O)[C@@H](NC(=O)[C@H](NC(=O)c1cnc3n(c1=O)CCS3)c1ccc(P(=O)(O)O)cc1)C2 (single isomer, unassigned) and write its reported MIC.
OUTPUT: > 128 µg/mL

INPUT: For the compound CS(=O)(=O)N1CCN(C(=O)N[C@H](C(=O)N[C@H]2Cc3cccc(C(=O)O)c3OB2O)c2ccc(P(=O)(O)O)cc2)C1=O (single isomer, unassigned) , report MIC.
OUTPUT: > 128 µg/mL

INPUT: For the compound N#Cc1ccnc(C(=O)NC(C(=O)N[C@H]2Cc3cccc(C(=O)O)c3OB2O)c2ccc(P(=O)(O)O)cc2)c1 (stereo partly shown) , give its measured MIC value.
OUTPUT: > 128 µg/mL

INPUT: # return recorded MIC for entry N[C@@H](C(=O)N[C@H]1Cc2cccc(C(=O)O)c2OB1O)c1ccc(P(=O)(O)O)cc1 (single isomer, unassigned)
OUTPUT: > 128 µg/mL

INPUT: Identify measured MIC associated with `N#Cc1cccc(C(=O)N[C@@H](C(=O)N[C@H]2Cc3cccc(C(=O)O)c3OB2O)c2ccc(P(=O)(O)O)cc2)n1`
OUTPUT: > 128 µg/mL

INPUT: Output MIC of CS(=O)(=O)N1CCN(C(=O)NC(C(=O)N[C@H]2Cc3cccc(C(=O)O)c3OB2O)c2ccc(P(=O)(O)O)c(Cl)c2)C1=O (stereo partly shown)
OUTPUT: > 128 µg/mL

INPUT: Given the compound O=C(O)c1cccc2c1OB(O)[C@@H](NC(=O)C(NC(=O)C1CC1)c1ccc(P(=O)(O)O)cc1)C2 (stereo partly shown) , write its reported MIC.
OUTPUT: > 128 µg/mL

INPUT: Check the records and state MIC for CCN1CCN(C(=O)N[C@@H](C(=O)N[C@H]2Cc3ccc(F)c(C(=O)O)c3OB2O)c2ccc(P(=O)(O)O)cc2)C(=O)C1=O (single isomer, unassigned)
OUTPUT: > 128 µg/mL

INPUT: Return MIC (reported value) for this compound: O=C(N[C@@H](C(=O)N[C@H]1Cc2cccc(C(=O)O)c2OB1O)c1ccc(P(=O)(O)O)cc1)c1cnc2ccnn2c1 (single isomer, unassigned)
OUTPUT: > 128 µg/mL

INPUT: Give reported MIC value for CCN1CCN(C(=O)NC(C(=O)N[C@H]2Cc3cccc(C(=O)O)c3OB2O)c2cccc(CP(=O)(O)O)c2)C(=O)C1=O (stereo partly shown)
OUTPUT: 32 to 64 µg/mL

INPUT: Hello, please tell me recorded MIC for this one: CC(C)S(=O)(=O)NC(C(=O)N[C@H]1Cc2cccc(C(=O)O)c2OB1O)c1ccc(P(=O)(O)O)cc1 (stereo partly shown)
OUTPUT: > 128 µg/mL

INPUT: Specify reported MIC for the compound shown: O=C(N[C@H](C(=O)N[C@H]1Cc2cccc(C(=O)O)c2OB1O)c1ccc(P(=O)(O)O)cc1)c1cnc2ccnn2c1 (single isomer, unassigned)
OUTPUT: > 128 µg/mL

INPUT: Provide measured MIC value, entry: NCCN1CCN(C(=O)NC(C(=O)N[C@H]2Cc3cccc(C(=O)O)c3OB2O)c2ccc(P(=O)(O)O)cc2)C(=O)C1=O (stereo partly shown)
OUTPUT: 32 to 64 µg/mL

INPUT: Supply reported MIC belonging to this compound: `CS(=O)(=O)N1CCN(C(=O)N[C@@H](C(=O)N[C@H]2Cc3ccc(F)c(C(=O)O)c3OB2O)c2ccc(P(=O)(O)O)c(F)c2F)C1=O`
OUTPUT: > 128 µg/mL

INPUT: Check the records and state MIC for O=C(O)c1cccc2c1OB(O)[C@@H](NC(=O)[C@H](NC(=O)c1cnc3sccn3c1=O)c1ccc(P(=O)(O)O)cc1)C2 (single isomer, unassigned)
OUTPUT: > 128 µg/mL

INPUT: Look up and report measured MIC for this entry: `O=C(O)c1cccc2c1OB(O)[C@@H](NC(=O)[C@H](NC(=O)N1CCCCC1=O)c1ccc(P(=O)(O)O)cc1)C2`
OUTPUT: > 128 µg/mL

INPUT: Complete the entry with MIC for O=C(N[C@@H](C(=O)N[C@H]1Cc2cccc(C(=O)O)c2OB1O)c1ccc(P(=O)(O)O)cc1)c1cnc2cccn2c1 (single isomer, unassigned)
OUTPUT: > 128 µg/mL

INPUT: Give recorded MIC. `O=C(O)c1cccc2c1OB(O)[C@@H](NC(=O)[C@H](NC(=O)N1CCN(Cc3cc(F)c(O)c(O)c3Cl)C(=O)C1=O)c1ccc(P(=O)(O)O)cc1)C2`
OUTPUT: 2 to 4 µg/mL

INPUT: Look up and report measured MIC for this entry: NS(=O)(=O)NC(C(=O)N[C@H]1Cc2cccc(C(=O)O)c2OB1O)c1ccc(P(=O)(O)O)cc1 (stereo partly shown)
OUTPUT: > 128 µg/mL
